METHOD DESCRIPTION: Half-lives and pharmacokinetic parameters of polypeptides vs HM-1
CONDITIONS: in vivo
Peptide text beside a SMILES is read from it. * marks the point of attachment. X27 = O=C1C=CC(=O)N1CCOCCOCCOCCOCCCCCC(=O)*; X25 = O=C1C=CC(=O)N1CCOCCOCCOCCOCCCCC(=O)*; X63 = O=C1C=CC(=O)N1c1ccccc1CCCCCCC(=O)*; X62 = O=C1C=CC(=O)N1CCCCCCCCCCCCC(=O)*; X48 = O=C1C=CC(=O)N1CCCCCCCCCCCC(=O)*; X57 = O=C1C=CC(=O)N1CCCCCCCC(=O)*
Can you tell me clearance for the items I'm about to list?
Answer in mL/min/kg, number only, no unit symbol.

The recorded clearance for C[C@H](NC(=O)CNC(=O)[C@H](CCCNC(=N)N)NC(=O)CCCCCCc1ccccc1N1C(=O)C=CC1=O)C(=O)N[C@@H](CC(=O)O)C(=O)N[C@@H](CCCNC(=N)N)C(=O)N[C@@H](C)C(=O)NCC(=O)NCC(=O)NCC(=O)NCC(=O)N[C@@H](CCCNC(=N)N)C(=O)NCC(=O)N[C@@H](CC(=O)O)C(=O)O [X18] (X63-RGADRAGGGGRGD-OH) is 0.613

The recorded clearance for C[C@H](NC(=O)CNC(=O)[C@H](CCCNC(=N)N)NC(=O)CCCCCOCCOCCOCCOCCN1C(=O)C=CC1=O)C(=O)N[C@@H](CC(=O)O)C(=O)N[C@@H](CCCNC(=N)N)C(=O)N[C@@H](C)C(=O)NCC(=O)NCC(=O)NCC(=O)NCC(=O)N[C@@H](CCCNC(=N)N)C(=O)NCC(=O)N[C@@H](CC(=O)O)C(=O)O [X74] (X27-RGADRAGGGGRGD-OH) is 0.495

The recorded clearance for C[C@H](NC(=O)CNC(=O)[C@H](CCCNC(=N)N)NC(=O)CCCCCCCN1C(=O)C=CC1=O)C(=O)N[C@@H](CC(=O)O)C(=O)N[C@@H](CCCNC(=N)N)C(=O)N[C@@H](C)C(=O)NCC(=O)NCC(=O)NCC(=O)NCC(=O)N[C@@H](CCCNC(=N)N)C(=O)NCC(=O)N[C@@H](CC(=O)O)C(=O)O [X7] (X57-RGADRAGGGGRGD-OH) is 0.485

The recorded clearance for C[C@H](NC(=O)CNC(=O)[C@H](CCCNC(=N)N)NC(=O)CCCCOCCOCCOCCOCCN1C(=O)C=CC1=O)C(=O)N[C@@H](CC(=O)O)C(=O)N[C@@H](CCCNC(=N)N)C(=O)N[C@@H](C)C(=O)NCC(=O)NCC(=O)NCC(=O)NCC(=O)N[C@@H](CCCNC(=N)N)C(=O)NCC(=O)N[C@@H](CC(=O)O)C(=O)O [X73] (X25-RGADRAGGGGRGD-OH) is 0.623

The recorded clearance for C[C@H](NC(=O)CNC(=O)[C@H](CCCNC(=N)N)NC(=O)CCCCCCCCCCCN1C(=O)C=CC1=O)C(=O)N[C@@H](CC(=O)O)C(=O)N[C@@H](CCCNC(=N)N)C(=O)N[C@@H](C)C(=O)NCC(=O)NCC(=O)NCC(=O)NCC(=O)N[C@@H](CCCNC(=N)N)C(=O)NCC(=O)N[C@@H](CC(=O)O)C(=O)O [X11] (X48-RGADRAGGGGRGD-OH) is 0.665

The recorded clearance for C[C@H](NC(=O)CNC(=O)[C@H](CCCNC(=N)N)NC(=O)CCCCCCCCCCCCN1C(=O)C=CC1=O)C(=O)N[C@@H](CC(=O)O)C(=O)N[C@@H](CCCNC(=N)N)C(=O)N[C@@H](C)C(=O)NCC(=O)NCC(=O)NCC(=O)NCC(=O)N[C@@H](CCCNC(=N)N)C(=O)NCC(=O)N[C@@H](CC(=O)O)C(=O)O [X12] (X62-RGADRAGGGGRGD-OH) is 0.572
